Assign IC50 to each entry below.
system: T. cruzi Epi (Luc2-Tulahuen epimastigotes); experiment: In vitro assay for anti-epimastigote form of T. cruzi activity (luciferase); format: cell-based, Trypanosoma cruzi; conditions: Trypanosoma cruzi, TULAHUEN; epimastigotes, 72 h

Study these solved cases before continuing.
1) COc1cc2c(cc1OC)-c1c(C)c3ccc(OC)c(OC)c3c[n+]1CC2 [Dehydrocorydaline nitrate]	17.3 µM
2) COc1cc2c(cc1OC)-c1cc3ccc(OC)c(OC)c3c[n+]1CC2 [Palmatine chloride]	22.3 µM
3) c1c2c(cc3c1OCO3)-c1cc3ccc4c(c3c[n+]1CC2)OCO4 [Coptisine chloride]	15.1 µM

stdin: Name the recorded IC50 of the compound listed here: O=C(Cn1ccnc1[N+](=O)[O-])NCc1ccccc1 [Benznidazole, reference compound]
stdout: 3.78 µM
